TARGET OF ASSAY: NS3 (Hepatitis C virus)
TEST SUMMARY: Inhibitory activity against NS3 protease complexed with NS4A cofactor peptide (NS3-4A pep)
Design: species or system Hepacivirus hominis
Starred links: 1 amine or outer side, 2 acyl side, 3 side chain; linkers in the order of their positions; H or OH if unused. Non-standard residues stand in square brackets, D forms with d. Residues, ends and D or L forms follow the SMILES beside them. *: point of attachment. oXylylene = c1ccc(C[*:2])c(C[*:1])c1; Hyp = O=C(O)[C@@H]1C[C@@H](O)CN1; Nva = CCC[C@H](N)C(=O)O; Ac3c = NC1(C(=O)O)CC1; Meb = Cc1ccc(C*)cc1
Kindly state IC50 for each of the entries shown.
Write the figure, then the unit, nothing else.

COMPOUND	TARGET OF ASSAY	PROPERTY	ENDPOINT RESULT
CCC[C@H](NC(=O)[C@@H]1C[C@@H](OCc2ccccc2C)CN1C(=O)[C@@H](NC(=O)[C@@H](NC(=O)[C@H](CC(=O)O)NC(=O)[C@H](CC(=O)O)NC(C)=O)[C@@H](C)CC)C(C)C)C(=O)O (Ac-DDIV[Hyp](oXylylene)[Nva]-OH)	NS3 (Hepatitis C virus)	IC50	6.8 µM
CCC[C@H](NC(=O)[C@@H]1CCCN1C(=O)[C@@H](NC(=O)[C@@H](NC(=O)[C@@H](CC(=O)O)NC(=O)[C@H](CC(=O)O)NC(C)=O)[C@@H](C)CC)C(C)C)C(=O)O (Ac-D[dD]IVP[Nva]-OH)	NS3 (Hepatitis C virus)	IC50	17 µM
CCC[C@H](NC(=O)[C@@H]1C[C@@H](OCc2ccc(C)cc2)CN1C(=O)[C@@H](NC(=O)[C@@H](NC(=O)[C@H](CC(=O)O)NC(=O)[C@H](CC(=O)O)NC(C)=O)[C@@H](C)CC)C(C)C)C(=O)O (Ac-DDIV[Hyp](Meb)[Nva]-OH)	NS3 (Hepatitis C virus)	IC50	2.5 µM

Now for the compound whose IC50 we want.
Reported IC50, compound CC[C@H](C)[C@H](NC(=O)[C@H](CC(=O)O)NC(=O)[C@H](CC(=O)O)NC(C)=O)C(=O)N[C@H](C(=O)N1CCC[C@H]1C(=O)NC1(C(=O)O)CC1)C(C)C (Ac-DDIVP[Ac3c]-OH) : ____ 54 µM

====

TARGET OF ASSAY: NS3 (Hepatitis C virus, UniProt A3EZJ3)
Sequence (A3EZJ3 whole entry): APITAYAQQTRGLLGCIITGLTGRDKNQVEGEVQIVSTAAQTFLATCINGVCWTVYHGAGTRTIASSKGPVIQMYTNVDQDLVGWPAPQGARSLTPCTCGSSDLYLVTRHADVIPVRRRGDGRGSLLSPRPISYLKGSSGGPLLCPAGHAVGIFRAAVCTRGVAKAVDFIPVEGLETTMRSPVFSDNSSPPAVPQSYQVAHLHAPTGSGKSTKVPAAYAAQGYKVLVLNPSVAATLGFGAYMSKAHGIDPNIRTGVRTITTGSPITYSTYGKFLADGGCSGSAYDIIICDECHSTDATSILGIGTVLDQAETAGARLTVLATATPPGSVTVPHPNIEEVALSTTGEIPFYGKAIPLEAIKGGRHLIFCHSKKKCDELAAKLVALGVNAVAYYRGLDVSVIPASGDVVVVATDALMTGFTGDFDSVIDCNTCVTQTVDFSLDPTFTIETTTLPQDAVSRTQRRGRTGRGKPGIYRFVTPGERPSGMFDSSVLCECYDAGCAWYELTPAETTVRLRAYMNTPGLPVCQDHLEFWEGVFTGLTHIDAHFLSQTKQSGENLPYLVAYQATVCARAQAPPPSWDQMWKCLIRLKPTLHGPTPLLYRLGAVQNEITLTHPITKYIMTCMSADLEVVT
TEST SUMMARY: Inhibitory activity against NS3 protease complexed with NS4A cofactor peptide (NS3-4A pep)
Starred links: 1 amine or outer side, 2 acyl side, 3 side chain; linkers in the order of their positions; H or OH if unused. Non-standard residues stand in square brackets, D forms with d. Residues, ends and D or L forms follow the SMILES beside them. *: point of attachment. X3 = O=C([C@@H]1C[C@@H](CCc2ccccc2)CN1[*:1])[*:2]; Hyp = O=C(O)[C@@H]1C[C@@H](O)CN1; Chg = N[C@H](C(=O)O)C1CCCCC1; Nva = CCC[C@H](N)C(=O)O; X1 = c1ccc2cc(C*)ccc2c1
Can you tell me pIC50 for the items I'm about to list?
One number for each entry, as −log10 of the molar value.

Solved entries:
MOLECULE	pIC50
CCC[C@H](NC(=O)[C@@H]1C[C@@H](O)CN1C(=O)[C@@H](NC(=O)[C@@H](NC(=O)[C@H](CC(=O)O)NC(=O)[C@H](CC(=O)O)NC(C)=O)[C@@H](C)CC)C(C)C)C(=O)O (Ac-DDIV[Hyp][Nva]-OH)	4.03
CCC[C@H](NC(=O)[C@@H]1C[C@@H](OCc2ccc3ccccc3c2)CN1C(=O)[C@@H](NC(=O)[C@@H](NC(=O)[C@H](CC(=O)O)NC(=O)[C@H](CC(=O)O)NC(C)=O)[C@@H](C)CC)C(C)C)C(=O)O (Ac-DDIV[Hyp](X1)[Nva]-OH)	6.15
CCC[C@H](NC(=O)[C@@H]1C[C@@H](OCc2ccc3ccccc3c2)CN1C(=O)[C@@H](NC(=O)[C@@H](NC(=O)[C@@H](CCC(=O)O)NC(=O)[C@H](CC(=O)O)NC(C)=O)C1CCCCC1)C(C)C)C(=O)O (Ac-D[dE][Chg]V[Hyp](X1)[Nva]-OH)	7.57

Look at this molecule and give its reported pIC50. CCC[C@H](NC(=O)[C@@H]1C[C@@H](CCc2ccccc2)CN1C(=O)[C@@H](NC(=O)[C@@H](NC(=O)[C@H](CC(=O)O)NC(=O)[C@H](CC(=O)O)NC(C)=O)[C@@H](C)CC)C(C)C)C(=O)O (Ac-DDIV[X3][Nva]-OH) 5.00

====

TARGET OF ASSAY: UniProtKB A3EZJ3
TEST SUMMARY: Inhibitory activity against NS3 protease complexed with NS4A cofactor peptide (NS3-4A pep)
pIC50: −log10 of the molar value. Starred links: 1 amine or outer side, 2 acyl side, 3 side chain; linkers in the order of their positions; H or OH if unused. Non-standard residues stand in square brackets, D forms with d. Residues, ends and D or L forms follow the SMILES beside them. *: point of attachment. X2 = O=C([C@@H]1C[C@@H](CCCc2ccccc2)CN1[*:1])[*:2]; Pro(4R-Bn) = O=C(O)[C@@H]1C[C@@H](Cc2ccccc2)CN1; CH2(1-naphthyl) = c1ccc2c(C*)cccc2c1; mXylylene = c1cc(C[*:1])cc(C[*:2])c1; Glutaryl = O=C(CCCC(=O)[*:2])[*:1]; Hyp = O=C(O)[C@@H]1C[C@@H](O)CN1; Chg = N[C@H](C(=O)O)C1CCCCC1; Nva = CCC[C@H](N)C(=O)O; Ac3c = NC1(C(=O)O)CC1; CF3 = FC(F)(F)*
Mark 0 (no) for pIC50 values under 5, and 1 (yes) for everything at or above.

COMPOUND	TARGET OF ASSAY	DISCRETE LABEL
CC(=O)N[C@H](C(=O)N[C@H](C(=O)N1C[C@H](OCc2cccc3ccccc23)C[C@H]1C(=O)NC1(C(=O)O)CC1)C(C)C)C1CCCCC1 (Ac-[Chg]V[Hyp](CH2(1-naphthyl))[Ac3c]-OH)	UniProtKB A3EZJ3	1 (yes)
CCC[C@H](NC(=O)[C@@H]1C[C@@H](OCc2cccc3ccccc23)CN1C(=O)[C@@H](NC(=O)[C@@H](NC(=O)[C@H](CC(=O)O)NC(=O)[C@H](CC(=O)O)NC(C)=O)[C@@H](C)CC)C(C)C)C(=O)O (Ac-DDIV[Hyp](CH2(1-naphthyl))[Nva]-OH)	UniProtKB A3EZJ3	1 (yes)
CCC[C@H](NC(=O)[C@@H]1CCCN1C(=O)[C@@H](NC(=O)[C@@H](NC(=O)[C@H](CC(=O)O)NC(=O)[C@H](CC(=O)O)NC(C)=O)[C@@H](C)CC)C(C)C)C(=O)O (Ac-DDIVP[Nva]-OH)	UniProtKB A3EZJ3	0 (no)
CCC[C@H](NC(=O)[C@@H]1C[C@@H](OCc2cccc(C)c2)CN1C(=O)[C@@H](NC(=O)[C@@H](NC(=O)[C@H](CC(=O)O)NC(=O)[C@H](CC(=O)O)NC(C)=O)[C@@H](C)CC)C(C)C)C(=O)O (Ac-DDIV[Hyp](mXylylene)[Nva]-OH)	UniProtKB A3EZJ3	1 (yes)
CC(=O)N[C@@H](CC(=O)O)C(=O)N[C@H](CCC(=O)O)C(=O)N[C@H](C(=O)N[C@H](C(=O)N1C[C@H](OCc2cccc3ccccc23)C[C@H]1C(=O)NC1(C(=O)O)CC1)C(C)C)C1CCCCC1 (Ac-D[dE][Chg]V[Hyp](CH2(1-naphthyl))[Ac3c]-OH)	UniProtKB A3EZJ3	1 (yes)
CCC[C@H](NC(=O)[C@@H]1CCCN1C(=O)[C@@H](NC(=O)[C@@H](NC(=O)[C@@H](CC(=O)O)NC(=O)[C@H](CC(=O)O)NC(C)=O)[C@@H](C)CC)C(C)C)C(=O)C(F)(F)F (Ac-D[dD]IVP[Nva]-CF3)	UniProtKB A3EZJ3	0 (no)
CC(C)[C@H](NC(=O)[C@@H](NC(=O)CCCC(=O)O)C1CCCCC1)C(=O)N1C[C@H](OCc2cccc3ccccc23)C[C@H]1C(=O)NC1(C(=O)O)CC1 (Glutaryl-[Chg]V[Hyp](CH2(1-naphthyl))[Ac3c]-OH)	UniProtKB A3EZJ3	1 (yes)
CCC[C@H](NC(=O)[C@@H]1C[C@@H](CCCc2ccccc2)CN1C(=O)[C@@H](NC(=O)[C@@H](NC(=O)[C@H](CC(=O)O)NC(=O)[C@H](CC(=O)O)NC(C)=O)[C@@H](C)CC)C(C)C)C(=O)O (Ac-DDIV[X2][Nva]-OH)	UniProtKB A3EZJ3	1 (yes)

Continue with the compound presented below.
Exam item: decide whether the reported pIC50 for CCC[C@H](NC(=O)[C@@H]1C[C@@H](Cc2ccccc2)CN1C(=O)[C@@H](NC(=O)[C@@H](NC(=O)[C@H](CC(=O)O)NC(=O)[C@H](CC(=O)O)NC(C)=O)[C@@H](C)CC)C(C)C)C(=O)O (Ac-DDIV[Pro(4R-Bn)][Nva]-OH) is at least 5. 0 (no)
